# Test system: corn
# ASSAY_DETAILS: Drought resistance in seed-coated corn
# Assay type: in vivo
# EXPERIMENTAL_CONTEXT: corn seed treatment 0.12 μg/seed, vs mock
Marks after values point to notes of the source that are not given here.
RECORDED_METRIC: % Change Fresh Weight

// returns reported % Change Fresh Weight for input SEQEEEMEEMEQLMEIFEEIEQELFE (P13-28 peptide) [Peptide P13-28] 9.99** %

Which % Change Fresh Weight value belongs to LEELEELLEIFEEIEEELFEE (P13-7 peptide) [Peptide P13-7] ? 5.6* %

What % Change Fresh Weight value was documented for this substance, LEELEELLEIFEEIEEELF (P13-35 peptide) [Peptide P13-35] ? 2.45%

# input substance: P13-53: P13 peptide variant tested in corn seed treatment, SEQ ID NO: 75; sequence not printed in the text (AGQTSGMSPMEQLMKIFADETQSLFGDQDG; P13-53 peptide) [Peptide P13-53] ; wanted: its % Change Fresh Weight −2.19%

Fill in: % Change Fresh Weight of TSGLSPLEQLLKIFAEITQSLFG (P13-3 peptide) [Peptide P13-3] is ___ 1.49%

# query: % Change Fresh Weight of entry AGQTSGMSPMEQLMKLFADLTQSLFGDQDG (P13-30 peptide) [Peptide P13-30] 6.19* %

Which % Change Fresh Weight value is on record for AGQTSGMSPMEQLMKIFADITQSLFGDEDG (P13-44 peptide) [Peptide P13-44] ? 7.76** %

Return reported % Change Fresh Weight; argument: QTGDDSLSGAGQTSGMSPMEQLMKIFADITQSLFG (P13-14 peptide) [Peptide P13-14] 9.11** %

Would you mind telling me what % Change Fresh Weight value was observed for AGQTSGLSPLEQLLKIFADITQSLFG (P13-23 peptide) [Peptide P13-23] ? 4.89** %

Please report the recorded % Change Fresh Weight for SEEMSPMEQLMKIFADITQSLFEE (P13-36 peptide) [Peptide P13-36] . 10.60** %

Using the record for P13-54: P13 peptide variant tested in corn seed treatment, SEQ ID NO: 76; sequence not printed in the text (AGQTSGMSPMEQLMKIFADITQSEFGDQDG; P13-54 peptide) [Peptide P13-54] , report its % Change Fresh Weight. −4.51* %

Returns the measured % Change Fresh Weight for the input substance. Input: AGQTSGMSPMEQLMEIFADITQSLFGDQDR (P13-56 peptide) [Peptide P13-56] 1.91%

For the substance shown here, P13-55: P13 peptide variant tested in corn seed treatment, SEQ ID NO: 77; sequence not printed in the text (AGQTSGMSPMEQLMKIFADITQSLEGDQDG; P13-55 peptide) [Peptide P13-55] , give the reported % Change Fresh Weight. −3.84%

The values you see were collected from patent US20180362993A1.
